Value source: paper PMC7279046

pIC50 for assorted molecules
- system-tested: NDM-1 (Klebsiella pneumoniae)
- Construct: made in house; host or cells: E. coli BL21 (DE3)
- Sequence (C7C422 29-270 limits assumed): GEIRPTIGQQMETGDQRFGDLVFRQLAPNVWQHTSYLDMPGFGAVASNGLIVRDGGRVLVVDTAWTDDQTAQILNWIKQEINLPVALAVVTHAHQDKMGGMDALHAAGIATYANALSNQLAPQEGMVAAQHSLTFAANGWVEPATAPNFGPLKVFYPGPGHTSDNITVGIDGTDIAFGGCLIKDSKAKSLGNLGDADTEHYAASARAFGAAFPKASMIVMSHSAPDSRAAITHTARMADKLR
- assay-explanation: nitrocefin assay (hydrolysis by purified NDM-1)
- Format: biochemical
- test-parameters: IC50 (not available; inhibitory activity at 1 mM), initial test at a concentration of 1 mM
pIC50: −log10 of the molar value.
endpoint-name: pIC50

1. Cc1ccc(-c2cc(C(F)(F)F)c3c(N)c(C(=O)c4ccccc4)sc3n2)cc1: < 3.00
2. Cc1ccc(C2=NN3[C@@H](C(=O)c4ccc(-c5ccccc5)cc4)Oc4ccc(Cl)cc4[C@H]3C2)cc1: < 3.00
3. O=C(N[C@@H](Cc1ccc2ccccc2c1)C(=O)O)OCC1c2ccccc2-c2ccccc21: < 3.00
4. Cc1ccccc1S(=O)(=O)ON1C(=O)c2cccc3cc(S(=O)(=O)N(C)C)cc(c23)C1=O: < 3.00
